Cited source for all entries: patent US4769378A

System: Estrogen synthesis (aromatization)
Experiment: Estrogen Synthesis Inhibition in Rats
Type: in vivo, immature female Wistar rats
Details: Rattus norvegicus, po, 168 h; 3 mg/kg × 7 days, gavage; ovaries; percent of testosterone-treated controls; read-out: % steroid concentration, estrone
measured-property: response vs control in vivo at 3 mg/kg (%)

1) OC1(c2ccc(Cl)cc2Cl)c2ccccc2-c2ncncc21 (stereo not drawn) [Example 19] : 116
2) Fc1ccc(C2c3ccc(F)cc3-c3ncncc32)cc1 (stereo not drawn) [Example 6] : 70.3
3) OC1(c2ccc(F)cc2)c2ccccc2-c2ncncc21 (stereo not drawn) [Example 21] : 83.8

----------
Test system: Estrogen synthesis (aromatization)
Assay: Estrogen Synthesis Inhibition in Rats
Format: in vivo, immature female Wistar rats
Details: Rattus norvegicus, po, 168 h; 3 mg/kg × 7 days, gavage; ovaries; percent of testosterone-treated controls; read-out: % steroid concentration, estrone
measured-property: response vs control in vivo at 3 mg/kg

1. Clc1ccc(C2c3ccccc3-c3ncncc32)cc1 (centres unmarked) : 106%
2. Clc1ccc(C2c3ccc(Cl)cc3-c3ncncc32)cc1 (centres unmarked) : 31.5%
3. OC1(c2ccc(Cl)cc2)c2ccc(Cl)cc2-c2ncncc21 (centres unmarked) : 89%
4. CC(=O)NC1(c2ccc(F)cc2)c2ccccc2-c2ncncc21 (centres unmarked) : 71.9%
5. OC1(c2ccccc2Cl)c2ccc(Cl)cc2-c2ncncc21 (centres unmarked) : 73.4%

----------
Test system: Estrogen synthesis (aromatization)
Assay: Estrogen Synthesis Inhibition in Rats;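 on Uterine Wt. %: 100% equals the stimulated control's weight gain over the unstimulated control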
Assay type: in vivo, immature female Wistar rats
Details: Rattus norvegicus, po, 168 h; 30 mg/kg × 7 days, gavage; 100 (DT-UC)/(SC-UC); read-out: Uterine Wt. %
Could you label it Condition met if measured response vs control in vivo at 30 mg/kg is 20% or higher, and Condition not met otherwise?

1. OC1(c2ccccc2Cl)c2ccc(Cl)cc2-c2ncncc21 (stereo not shown) [Example 22] : Condition met
2. Clc1ccc(C2c3ccc(Cl)cc3-c3ncncc32)cc1 (stereo not shown) [Example 1] : Condition met
3. Fc1ccc2c(c1)-c1ncncc1C2c1ccc(C(F)(F)F)cc1 (stereo not shown) [Example 5] : Condition met
4. Fc1ccc(C2c3ccc(C(F)(F)F)cc3-c3ncncc32)cc1 (stereo not shown) [Example 4] : Condition not met
5. OC1(c2ccc(F)cc2)c2ccccc2-c2ncncc21 (stereo not shown) [Example 21] : Condition not met
6. Fc1ccc(C2c3ccc(F)cc3-c3ncncc32)cc1 (stereo not shown) [Example 6] : Condition not met
7. OC1(c2ccc(Cl)cc2)c2ccc(Cl)cc2-c2ncncc21 (stereo not shown) [Example 18] : Condition not met
8. Clc1ccc(C2c3ccccc3-c3ncncc32)cc1 (stereo not shown) [Example 2] : Condition met
9. CC(=O)NC1(c2ccc(F)cc2)c2ccccc2-c2ncncc21 (stereo not shown) [Example 24] : Condition met
10. OC1(c2ccc(Cl)cc2Cl)c2ccccc2-c2ncncc21 (stereo not shown) [Example 19] : Condition met

----------
Target: aromatase (Rattus norvegicus, UniProt P22443)
Construct: ovarian microsomes are obtained from rats treated with pregnant mares serum gonadotropin
Experiment: Aromatase inhibition in the rat ovarian microsome assay
Details: substrate (androstenedione) concentration 0.1 μM; rat ovarian microsomes; read-out: EC50 (concentration of compound required to achieve 50% inhibition of aromatase activity)
pEC50: −log10 of the molar value.
Could you label it T if measured pEC50 is 7 or higher, and F otherwise?

1) CC(=O)NC1(c2ccc(Cl)cc2Cl)c2ccccc2-c2ncncc21 (stereo not shown) : F
2) Clc1ccc(C2c3ccccc3-c3ncncc32)cc1 (stereo not shown) : T
3) Clc1ccc(C2c3ccccc3-c3ncncc32)cc1Cl (stereo not shown) : T
4) Clc1ccc2c(c1)-c1ncncc1C2c1ccccc1 (stereo not shown) : T
5) Fc1ccc(C2c3ccccc3-c3ncncc32)cc1 (stereo not shown) : T
6) Clc1ccc(C2c3ccc(Cl)cc3-c3ncncc32)cc1 (stereo not shown) : T
7) OC1(c2ccc(Cl)cc2)c2ccc(Cl)cc2-c2ncncc21 (stereo not shown) : T
8) OC1(c2ccc(F)cc2)c2ccccc2-c2ncncc21 (stereo not shown) : T
9) OC1(c2ccc(Cl)cc2Cl)c2ccccc2-c2ncncc21 (stereo not shown) : F
10) Fc1ccc2c(c1)-c1ncncc1C2c1ccc(C(F)(F)F)cc1 (stereo not shown) : T
11) COc1ccc2c(c1)-c1ncncc1C2c1cccc(Cl)c1 (stereo not shown) : T
12) COc1ccc2c(c1)C(O)(c1ccc(Cl)cc1)c1cncnc1-2 (stereo not shown) : F
13) Fc1cccc(C2c3ccccc3-c3ncncc32)c1 (stereo not shown) : T
14) OC1(c2ccccc2Cl)c2ccc(Cl)cc2-c2ncncc21 (stereo not shown) : T
15) CC(=O)NC1(c2ccc(Cl)cc2)c2ccc(Cl)cc2-c2ncncc21 (stereo not shown) : F
16) FC1(c2ccc(Cl)cc2)c2ccc(Cl)cc2-c2ncncc21 (stereo not shown) : T
17) Fc1ccc2c(c1)C(c1ccccc1F)c1cncnc1-2 (stereo not shown) : F
18) Fc1ccc(C2c3ccc(F)cc3-c3ncncc32)cc1 (stereo not shown) : T
19) Fc1ccc(C2c3ccc(C(F)(F)F)cc3-c3ncncc32)cc1 (stereo not shown) : T

----------
Reported response vs control in vivo at 3 mg/kg values follow for various compounds
System: Estrogen synthesis (aromatization)
Assay: Estrogen Synthesis Inhibition in Rats
Assay type: in vivo, immature female Wistar rats
Conditions: Rattus norvegicus, po, 168 h; 3 mg/kg × 7 days, gavage; ovaries; percent of testosterone-treated controls; read-out: % steroid concentration, estradiol
measured-property: response vs control in vivo at 3 mg/kg (%)

1) OC1(c2ccc(Cl)cc2Cl)c2ccccc2-c2ncncc21 (centres unmarked) [Example 19] : 78.3
2) OC1(c2ccc(F)cc2)c2ccccc2-c2ncncc21 (centres unmarked) [Example 21] : 14.5
3) Fc1ccc(C2c3ccc(F)cc3-c3ncncc32)cc1 (centres unmarked) [Example 6] : 10.2
4) Clc1ccc(C2c3ccc(Cl)cc3-c3ncncc32)cc1 (centres unmarked) [Example 1] : 31.5
5) Clc1ccc(C2c3ccccc3-c3ncncc32)cc1 (centres unmarked) [Example 2] : 40.5
6) OC1(c2ccc(Cl)cc2)c2ccc(Cl)cc2-c2ncncc21 (centres unmarked) [Example 18] : 16.8
7) CC(=O)NC1(c2ccc(F)cc2)c2ccccc2-c2ncncc21 (centres unmarked) [Example 24] : 43.2
8) OC1(c2ccccc2Cl)c2ccc(Cl)cc2-c2ncncc21 (centres unmarked) [Example 22] : 79.4

----------
Molecular target: aromatase (Rattus norvegicus)
Construct: ovarian microsomes are obtained from rats treated with pregnant mares serum gonadotropin
Sequence (P22443 1-508): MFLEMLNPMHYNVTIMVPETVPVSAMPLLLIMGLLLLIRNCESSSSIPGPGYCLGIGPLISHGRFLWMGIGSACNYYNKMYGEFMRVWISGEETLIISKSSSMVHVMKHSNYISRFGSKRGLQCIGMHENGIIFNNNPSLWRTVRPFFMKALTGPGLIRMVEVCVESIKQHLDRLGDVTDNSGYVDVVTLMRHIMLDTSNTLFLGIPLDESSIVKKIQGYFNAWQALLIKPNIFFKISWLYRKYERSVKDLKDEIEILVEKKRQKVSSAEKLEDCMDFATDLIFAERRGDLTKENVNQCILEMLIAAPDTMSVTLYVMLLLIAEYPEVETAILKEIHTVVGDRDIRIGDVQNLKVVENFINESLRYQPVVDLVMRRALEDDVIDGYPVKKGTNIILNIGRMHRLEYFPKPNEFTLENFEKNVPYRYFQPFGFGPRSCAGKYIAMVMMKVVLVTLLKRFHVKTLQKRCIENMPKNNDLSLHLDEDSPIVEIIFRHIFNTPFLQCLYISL
Test: Aromatase inhibition in the rat ovarian microsome assay
Details: substrate (androstenedione) concentration 0.1 μM; rat ovarian microsomes; read-out: EC50 (concentration of compound required to achieve 50% inhibition of aromatase activity)
Label Y when EC50 is strictly below 0.08 µM; otherwise label N.

1. Clc1ccc(C2(Cl)c3ccc(Cl)cc3-c3ncncc32)cc1 (stereo not drawn) [Example 27] : Y
2. Clc1ccc(C2c3ccccc3-c3ncncc32)c(Cl)c1 (stereo not drawn) [Example 8] : Y
3. ClC1(c2ccccc2)c2ccccc2-c2ncncc21 (stereo not drawn) [Example 26] : N
4. CC(=O)NC1(c2ccc(F)cc2)c2ccccc2-c2ncncc21 (stereo not drawn) [Example 24] : Y
5. Clc1ccc(Cl)c(C2c3ccccc3-c3ncncc32)c1 (stereo not drawn) [Example 10] : N
6. COc1ccc2c(c1)C(c1ccc(F)cc1)c1cncnc1-2 (stereo not drawn) [Example 13] : Y
7. Fc1ccccc1C1c2ccccc2-c2ncncc21 (stereo not drawn) [Example 14] : N
8. c1ccc(C2c3ccccc3-c3ncncc32)cc1 (stereo not drawn) [Example 7, 5-phenyl-5H-indeno[1,2-d]pyrimidine] : N
9. COc1ccc2c(c1)C(c1ccc(Cl)cc1)c1cncnc1-2 (stereo not drawn) [Example 12] : N
